# STUDY_TARGET: human serum albumin (Homo sapiens, UniProt P02768)
# Sequence (P02768 25-609): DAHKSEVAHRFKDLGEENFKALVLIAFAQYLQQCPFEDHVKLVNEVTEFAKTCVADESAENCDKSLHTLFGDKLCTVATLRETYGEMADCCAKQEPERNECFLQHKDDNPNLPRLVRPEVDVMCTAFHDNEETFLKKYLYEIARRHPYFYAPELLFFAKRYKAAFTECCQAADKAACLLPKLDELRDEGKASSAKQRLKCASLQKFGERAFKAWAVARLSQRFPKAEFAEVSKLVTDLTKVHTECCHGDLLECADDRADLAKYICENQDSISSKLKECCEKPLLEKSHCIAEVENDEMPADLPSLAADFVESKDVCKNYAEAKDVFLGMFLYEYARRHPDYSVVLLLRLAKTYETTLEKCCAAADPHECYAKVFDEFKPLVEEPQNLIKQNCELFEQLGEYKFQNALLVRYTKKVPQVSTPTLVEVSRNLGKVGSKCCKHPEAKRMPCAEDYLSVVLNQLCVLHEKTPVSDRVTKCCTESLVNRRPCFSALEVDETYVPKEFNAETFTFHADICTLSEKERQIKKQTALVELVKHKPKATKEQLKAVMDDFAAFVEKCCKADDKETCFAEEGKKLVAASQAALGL
# TEST_SUMMARY: Human serum albumin (HSA) binding assay
# Format: in vitro ADME
# CONDITION_CONTEXT: human serum albumin binding
Non-standard residues stand in square brackets, D forms with d. Residues, ends and D or L forms follow the SMILES beside them. dPhe(4-Cl) = N[C@H](Cc1ccc(Cl)cc1)C(=O)O; NMeN = CN[C@@H](CC(N)=O)C(=O)O; NMeL = CN[C@@H](CC(C)C)C(=O)O; dNMeL = CN[C@H](CC(C)C)C(=O)O; NMeV = CN[C@H](C(=O)O)C(C)C; dOrn = NCCC[C@@H](N)C(=O)O
Documented % HSA across a set of compounds
Just the number please, in %, no unit attached.

These solved cases illustrate the format of a correct answer.
# COMPOUND, STUDY_TARGET, EXPERIMENTAL_READOUT, UNIT_ABBREVIATION, REPORTED_VALUE
measured = [
    ("CC(C)C[C@@H]1NC(=O)[C@H](Cc2c[nH]c3ccccc23)NC(=O)[C@@H](CCCN)NC(=O)[C@H](CC(N)=O)N(C)C(=O)[C@H](C(C)C)NC(=O)[C@@H](CC(C)C)N(C)C1=O [Compound 25c] (cyclo(L[dNMeL]V[NMeN][dOrn]W))", "human serum albumin (Homo sapiens, UniProt P02768)", "% HSA", "%", 82.97),
    ("CC(C)C[C@@H]1NC(=O)[C@H](Cc2c[nH]c3ccccc23)NC(=O)[C@@H](CCCN)NC(=O)[C@H](CC(N)=O)NC(=O)[C@H](C(C)C)NC(=O)[C@@H](C)NC1=O [Compound 6c] (cyclo(L[dA]VN[dOrn]W))", "human serum albumin (Homo sapiens, UniProt P02768)", "% HSA", "%", 42.21),
    ("CC(C)C[C@H]1NC(=O)[C@H](CC(C)C)N(C)C(=O)[C@H](Cc2c[nH]c3ccccc23)NC(=O)[C@@H](CCCN)NC(=O)[C@H](CC(N)=O)NC(=O)[C@H](C(C)C)N(C)C1=O [Compound 24c] (cyclo(N[dOrn]W[NMeL][dL][NMeV]))", "human serum albumin (Homo sapiens, UniProt P02768)", "% HSA", "%", 87.02),
]

*Q* Return value of % HSA for input CC(C)C[C@@H]1NC(=O)[C@H](Cc2c[nH]c3ccccc23)NC(=O)[C@@H](CCCN)NC(=O)[C@H](CC(N)=O)NC(=O)[C@H](C(C)C)N(C)C(=O)[C@@H](CC(C)C)NC1=O [Compound 22c] (cyclo(L[dL][NMeV]N[dOrn]W)) , no commentary.
*A* 73.98

*Q* Return value of % HSA for input CSCC[C@@H]1NC(=O)[C@@H](CC(C)C)NC(=O)[C@H](CC(C)C)NC(=O)[C@H](Cc2c[nH]c3ccccc23)NC(=O)[C@@H](CCCN)NC(=O)[C@H](CC(N)=O)NC1=O [Compound 8c] (cyclo(L[dL]MN[dOrn]W)) , no commentary.
*A* 73.79

*Q* Return value of % HSA for input CC[C@H](C)[C@@H]1NC(=O)[C@@H](CC(C)C)NC(=O)[C@H](CC(C)C)NC(=O)[C@H](Cc2c[nH]c3ccccc23)NC(=O)[C@@H](CCCNC(=N)N)NC(=O)[C@H](CC(N)=O)NC1=O [Compound 13c] (cyclo(IN[dR]WL[dL])) , no commentary.
*A* 87.55

*Q* Return value of % HSA for input CC(C)C[C@@H]1NC(=O)[C@@H](Cc2ccc(Cl)cc2)NC(=O)[C@@H](CCCN)NC(=O)[C@H](CC(N)=O)NC(=O)[C@H](C(C)C)NC(=O)[C@@H](CC(C)C)NC1=O [Compound 14c] (cyclo(L[dL]VN[dOrn][dPhe(4-Cl)])) , no commentary.
*A* 70.25

*Q* Return value of % HSA for input CC(C)C[C@@H]1NC(=O)[C@@H](CC(C)C)NC(=O)[C@@H](CCCN)NC(=O)[C@H](CC(N)=O)NC(=O)[C@H](C(C)C)NC(=O)[C@H](Cc2c[nH]c3ccccc23)NC1=O [Compound 21c] (cyclo(LWVN[dOrn][dL])) , no commentary.
*A* 79.64

* * *

# TEST_SUMMARY: Intrinsic clearance (CLint) assay, human liver microsomes
# Type: in vitro ADME
# CONDITION_CONTEXT: liver blood flow
Non-standard residues stand in square brackets, D forms with d. Residues, ends and D or L forms follow the SMILES beside them. dPhe(4-Cl) = N[C@H](Cc1ccc(Cl)cc1)C(=O)O; dOrn = NCCC[C@@H](N)C(=O)O
EXPERIMENTAL_READOUT: % LBF Human (%)
Just the number please, in %, no unit attached.

These solved cases illustrate the format of a correct answer.
# COMPOUND, % LBF Human (%)
rows = [
    ("CC[C@H](C)[C@@H]1NC(=O)[C@@H](CC(C)C)NC(=O)[C@H](CC(C)C)NC(=O)[C@H](Cc2c[nH]c3ccccc23)NC(=O)[C@@H](CCCN)NC(=O)[C@H](CO)NC1=O [Compound 10c] (cyclo(IS[dOrn]WL[dL]))", 93.00),
    ("CC(C)C[C@@H]1NC(=O)[C@H](Cc2c[nH]c3ccccc23)NC(=O)[C@@H](CCCN)NC(=O)[C@H](CC(N)=O)NC(=O)[C@H](C(C)C)NC(=O)[C@@H](Cc2ccc(Cl)cc2)NC1=O [Compound 16c] (cyclo(L[dPhe(4-Cl)]VN[dOrn]W))", 76.78),
    ("CC[C@H](C)[C@@H]1NC(=O)[C@@H](CC(C)C)NC(=O)[C@H](CC(C)C)NC(=O)[C@H](Cc2c[nH]c3ccccc23)NC(=O)[C@@H](CCCNC(=N)N)NC(=O)[C@H](CC(N)=O)NC1=O [Compound 13c] (cyclo(IN[dR]WL[dL]))", 91.01),
]

Note: attention shifts to another entry.
*Q* Return value of % LBF Human for input CC(C)C[C@@H]1NC(=O)[C@H](Cc2c[nH]c3ccccc23)NC(=O)[C@@H](CCCN)NC(=O)[C@@H](CCCN)NC(=O)[C@H](C(C)C)NC(=O)[C@@H](CC(C)C)NC1=O [Compound 9c] (cyclo(L[dL]V[dOrn][dOrn]W)) , no commentary.
*A* 38.08

* * *

Documented CLint Mouse across a set of molecules
# TEST_SUMMARY: Intrinsic clearance (CLint) assay, mouse liver microsomes
# Assay type: in vitro ADME
# CONDITION_CONTEXT: mouse liver microsomes
Non-standard residues stand in square brackets, D forms with d. Residues, ends and D or L forms follow the SMILES beside them. dPhe(4-Cl) = N[C@H](Cc1ccc(Cl)cc1)C(=O)O; NMeV = CN[C@H](C(=O)O)C(C)C; dOrn = NCCC[C@@H](N)C(=O)O

These solved cases illustrate the format of a correct answer.
# MOLECULE, CLint Mouse
measured = [
    ("CC(C)C[C@@H]1NC(=O)[C@H](Cc2c[nH]c3ccccc23)NC(=O)[C@@H](CCCN)NC(=O)[C@H](CC(N)=O)NC(=O)[C@H](C(C)C)N(C)C(=O)[C@@H](CC(C)C)NC1=O [Compound 22c] (cyclo(L[dL][NMeV]N[dOrn]W))", "<0.48 mL/min/g tissue"),
    ("CC(C)C[C@@H]1NC(=O)[C@@H](Cc2ccc(Cl)cc2)NC(=O)[C@@H](CCCN)NC(=O)[C@H](CC(N)=O)NC(=O)[C@H](C(C)C)NC(=O)[C@@H](CC(C)C)NC1=O [Compound 14c] (cyclo(L[dL]VN[dOrn][dPhe(4-Cl)]))", "<0.48 mL/min/g tissue"),
    ("CC[C@H](C)[C@@H]1NC(=O)[C@@H](CC(C)C)NC(=O)[C@H](CC(C)C)NC(=O)[C@H](Cc2c[nH]c3ccccc23)NC(=O)[C@@H](CCCN)NC(=O)[C@H](CC(N)=O)NC1=O [Compound 7c] (cyclo(IN[dOrn]WL[dL]))", "<0.48 mL/min/g tissue"),
]

*Q* Return value of CLint Mouse for input CC(C)C[C@H]1NC(=O)[C@@H](Cc2ccc(Cl)cc2)NC(=O)[C@H](Cc2c[nH]c3ccccc23)NC(=O)[C@@H](CCCN)NC(=O)[C@H](CC(N)=O)NC(=O)[C@H](C(C)C)NC1=O [Compound 17c] (cyclo(N[dOrn]W[dPhe(4-Cl)][dL]V)) , no commentary.
*A* 0.54 mL/min/g tissue

*Q* Return value of CLint Mouse for input CC[C@H](C)[C@@H]1NC(=O)[C@@H](CC(C)C)NC(=O)[C@H](CC(C)C)NC(=O)[C@H](Cc2c[nH]c3ccccc23)NC(=O)[C@@H](CCCNC(=N)N)NC(=O)[C@H](CC(N)=O)NC1=O [Compound 13c] (cyclo(IN[dR]WL[dL])) , no commentary.
*A* 1.01 mL/min/g tissue

*Q* Return value of CLint Mouse for input CC(C)C[C@@H]1NC(=O)[C@H](Cc2c[nH]c3ccccc23)NC(=O)[C@@H](CCCN)NC(=O)[C@H](C)NC(=O)[C@H](C(C)C)NC(=O)[C@@H](CC(C)C)NC1=O [Compound 4c] (cyclo(A[dOrn]WL[dL]V)) , no commentary.
*A* <0.48 mL/min/g tissue

*Q* Return value of CLint Mouse for input CC(C)C[C@H]1NC(=O)[C@H](C)NC(=O)[C@H](Cc2c[nH]c3ccccc23)NC(=O)[C@@H](CCCN)NC(=O)[C@H](CC(N)=O)NC(=O)[C@H](C(C)C)NC1=O [Compound 2c] (cyclo(A[dL]VN[dOrn]W)) , no commentary.
*A* <0.48 mL/min/g tissue

*Q* Return value of CLint Mouse for input CC(C)C[C@@H]1NC(=O)[C@H](C)NC(=O)[C@@H](CCCN)NC(=O)[C@H](CC(N)=O)NC(=O)[C@H](C(C)C)NC(=O)[C@@H](CC(C)C)NC1=O [Compound 3c] (cyclo(AL[dL]VN[dOrn])) , no commentary.
*A* <0.48 mL/min/g tissue
